Reference source: patent US20200323991A1

test system: KB cells; assay type: cell-based, human; settings: without excess folate, 2 h pulse, chase up to 72 h, read-out: IC50 value, 3H-thymidine incorporation
Labelling: IC50 reported below 0.09 nM becomes True; at or above becomes False.

Please review the following examples before continuing.
compound	category.label
C=C1C[C@H]2C=Nc3cc(OCCCCCOc4cc(N)c(C(=O)N5CC(=C)C[C@H]5C5OCCN5C(=O)OCC(C)(C)SSCCC(=O)NCCNC(=O)CCCCCN5C(=O)CC(SC[C@H](NC(=O)[C@H](CC(=O)O)NC(=O)[C@H](CC(=O)O)NC(=O)[C@H](CCCNC(=N)N)NC(=O)[C@H](CC(=O)O)NC(=O)CC[C@H](NC(=O)c6ccc(NCc7cnc8nc(N)[nH]c(=O)c8n7)cc6)C(=O)O)C(=O)O)C5=O)cc4OC)c(OC)cc3C(=O)N2C1 (stereo partly drawn) [Conjugate 22]	False
C=C1C[C@H]2C=Nc3cc(OCCCCCOc4cc(NC(=O)OCCSSC(C)(C)[C@H](NC(=O)[C@H](CC(=O)O)NC(=O)[C@H](CC(=O)O)NC(=O)[C@H](CCCNC(=N)N)NC(=O)[C@H](CC(=O)O)NC(=O)CC[C@H](NC(=O)c5ccc(NCc6cnc7nc(N)[nH]c(=O)c7n6)cc5)C(=O)O)C(=O)O)c(C(=O)N5CC(=C)C[C@H]5/C=N/OC)cc4OC)c(OC)cc3C(=O)N2C1 [Conjugate 32]	False
C=C1C[C@H]2C=Nc3cc(OCCCCCOc4cc(NC(=O)OCCCSSC[C@H](NC(=O)[C@H](CC(=O)O)NC(=O)[C@H](CC(=O)O)NC(=O)[C@H](CCCNC(=N)N)NC(=O)[C@H](CC(=O)O)NC(=O)CC[C@H](NC(=O)c5ccc(NCc6cnc7nc(N)[nH]c(=O)c7n6)cc5)C(=O)O)C(=O)O)c(C(=O)N5CC(=C)C[C@H]5/C=N/OC)cc4OC)c(OC)cc3C(=O)N2C1 [Conjugate 31]	False
C=C1CC(/C=N/OC)N(C(=O)c2cc(OC)c(OCCCCCOc3cc4c(cc3OC)C(=O)N3CC(=C)C[C@H]3C=N4)cc2NC(=O)OCC(C)(C)SSCCC(=O)NCCNC(=O)CCN2C(=O)CC(SC[C@H](NC(=O)[C@H](CC(=O)O)NC(=O)[C@H](CC(=O)O)NC(=O)[C@H](CCCNC(=N)N)NC(=O)[C@H](CC(=O)O)NC(=O)CC[C@H](NC(=O)c3ccc(NCc4cnc5nc(N)[nH]c(=O)c5n4)cc3)C(=O)O)C(=O)O)C2=O)C1 (stereo partly drawn) [Conjugate 18]	True

*Q* Lab note: IC50 threshold 0.09 nM. Does this compound come in strictly under it? C=C1C[C@H]2C=Nc3cc(OCCCCCOc4cc5c(cc4OC)C(=O)N4CC(=C)C[C@H]4C(O)N5C(=O)OCC(C)(C)SSCCC(=O)NCCNC(=O)CCOCCOCCOCCOCCNC(=O)CCN4C(=O)CC(SC[C@H](NC(=O)[C@H](CC(=O)O)NC(=O)[C@H](CC(=O)O)NC(=O)[C@H](CCCNC(=N)N)NC(=O)[C@H](CC(=O)O)NC(=O)CC[C@H](NC(=O)c5ccc(NCc6cnc7nc(N)[nH]c(=O)c7n6)cc5)C(=O)O)C(=O)O)C4=O)c(OC)cc3C(=O)N2C1 (stereo partly drawn) [Conjugate 24]
*A* True

*Q* Hi there! Is IC50 for C=C1C[C@H]2C=Nc3cc(OCCCCCOc4cc(NC(=O)OCCSSC[C@H](NC(=O)[C@H](CC(=O)O)NC(=O)[C@H](CC(=O)O)NC(=O)[C@H](CCCNC(=N)N)NC(=O)[C@H](CC(=O)O)NC(=O)CC[C@H](NC(=O)c5ccc(NCc6cnc7nc(N)[nH]c(=O)c7n6)cc5)C(=O)O)C(=O)O)c(C(=O)N5CC(=C)C[C@H]5/C=N/OC)cc4OC)c(OC)cc3C(=O)N2C1 [Conjugate 16] below 0.09 nM, do you know?
*A* True

*Q* Please check: IC50 for C=C1C[C@H]2C=Nc3cc(OCCCCCOc4cc(NC(=O)OCC(C)(C)SSCCC(=O)NCCNC(=O)CCOCCOCCOCCOCCOCCOCCOCCOCCOCCOCCOCCOCCNC(=O)CCN5C(=O)CC(SC[C@H](NC(=O)[C@H](CC(=O)O)NC(=O)[C@H](CC(=O)O)NC(=O)[C@H](CCCNC(=N)N)NC(=O)[C@H](CC(=O)O)NC(=O)CC[C@H](NC(=O)c6ccc(NCc7cnc8nc(N)[nH]c(=O)c8n7)cc6)C(=O)O)C(=O)O)C5=O)c(C(=O)N5CC(=C)C[C@H]5/C=N/OC)cc4OC)c(OC)cc3C(=O)N2C1 (stereo partly drawn) [Conjugate 20] , strictly under 0.09 nM or not?
*A* True

*Q* IC50 under 0.09 nM? Item: C=C1C[C@H]2C=Nc3cc(OCCCCCOc4cc(N)c(C(=O)N5CC(=C)C[C@H]5C5OCCN5C(=O)OCC(C)(C)SSCCC(=O)NCCNC(=O)CCOCCOCCOCCOCCOCCOCCOCCOCCOCCOCCOCCOCCNC(=O)CCN5C(=O)CC(SC[C@H](NC(=O)[C@H](CC(=O)O)NC(=O)[C@H](CC(=O)O)NC(=O)[C@H](CCCNC(=N)N)NC(=O)[C@H](CC(=O)O)NC(=O)CC[C@H](NC(=O)c6ccc(NCc7cnc8nc(N)[nH]c(=O)c8n7)cc6)C(=O)O)C(=O)O)C5=O)cc4OC)c(OC)cc3C(=O)N2C1 (stereo partly drawn) [Conjugate 8]
*A* True
